# reported Km; entries follow
# TESTED_ON: UniProt:P56560
# Sequence (P56560 whole entry): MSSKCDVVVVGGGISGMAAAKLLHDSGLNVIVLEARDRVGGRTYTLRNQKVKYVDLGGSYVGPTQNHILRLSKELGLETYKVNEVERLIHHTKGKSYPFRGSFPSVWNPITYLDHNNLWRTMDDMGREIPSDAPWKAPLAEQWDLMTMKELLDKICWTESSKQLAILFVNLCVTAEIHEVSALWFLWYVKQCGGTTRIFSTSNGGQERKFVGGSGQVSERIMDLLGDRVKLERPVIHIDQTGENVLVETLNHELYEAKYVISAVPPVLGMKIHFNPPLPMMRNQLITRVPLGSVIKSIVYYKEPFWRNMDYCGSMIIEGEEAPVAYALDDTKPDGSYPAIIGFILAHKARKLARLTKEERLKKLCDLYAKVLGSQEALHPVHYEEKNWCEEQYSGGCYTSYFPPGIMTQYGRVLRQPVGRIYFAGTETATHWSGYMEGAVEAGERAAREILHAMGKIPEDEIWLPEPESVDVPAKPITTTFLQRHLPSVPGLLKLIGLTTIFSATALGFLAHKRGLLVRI
# PROTOCOL_DESCRIPTION: in vitro
# EXPERIMENTAL_CONTEXT: cattle, bovine liver monoamine oxidase B
# Description: Km against bovine liver Monoamine oxidase B
// note: answer is a bare numeric in µM

Data point: `CN1CC=C(c2ccccn2)CC1` ; Km = 900

For `CN1CC=C(c2cccnc2)CC1` the compound record lists Km as 1900
